assay: chemical genetic growth profiling, strain panel (AID 1159580);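 also: tested at 20 µM; growth read once vehicle control cultures reached saturation at 30 °C; 1 = growth at the plate median or of vehicle wells; lower values mean less growth of the strain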; details: S. cerevisiae deletion strains, growth OD, locus YDL192W, strain arf1, active compounds read low
Among all 5,500 compounds or so, about 2,000 (36%) were called active. About 18% were inconclusive and are not listed. The list shows a part of the results.
Reported endpoint: normalized growth
Keep the answer to the number alone.

// query Could you tell me which normalized growth is on file for Cn1cnc([N+](=O)[O-])c1Sc1ncnc2nc[nH]c12 ?
// result 0.994

// query O=C(O)c1cc2cc(Cl)ccc2[nH]1 , same question.
// result 0.989

// query Note, next up: COc1c2c(cc3occ(-c4ccc5c(c4)OCO5)c(=O)c13)OC(C)(C)C=C2
// result 0.918

// query Also need C[C@]12CCC3c4ccc(O)cc4CCC3C1CC[C@@H]2OC(=O)CCC1CCCC1 (stereo partly drawn) , thanks.
// result 1

// query Okay, and COc1cc2c(cc1-c1coc3c4c(c(OC)cc3c1=O)OC(C)(C)C=C4)OCO2 ?
// result 0.966

// query One more compound: COc1cc(O)c(C(C)=O)c(OC)c1
// result 1.01

// query For CC1(C)C[C@@H]2C(=O)CC[C@H]3O[C@]3(C)CC[C@H]21 then?
// result 0.996

// query Lookup CCC(=O)O[C@H]1CCC2C3CCc4cc(O)ccc4C3CC[C@@]21C (stereo partly drawn)
// result 1.01

// query What about N#Cc1ccc2c(c1)N(CCCN1CCC(O)CC1)c1ccccc1S2 ?
// result 1.03

// query And what about the compound CCOc1ccc(Cc2nccc3cc(OCC)c(OCC)cc23)cc1OCC ?
// result 0.958

// query Please give the result for O=C(CCCN1CC=C(n2c(=O)[nH]c3ccccc32)CC1)c1ccc(F)cc1 too.
// result 0.983

// query Same again, this time with CCN(CC)CCNC(=O)COc1ccc(OC)cc1
// result 0.995

// query Entry CC(C(=O)O)c1ccc(N2Cc3ccccc3C2=O)cc1 (stereo not drawn) please
// result 0.99

// query Now the compound CC(=O)OC1CCC2C3CCc4cc(O)ccc4C3CCC12C (stereo not drawn)
// result 1.03

// query What do you have for CC1(C)S[C@@H]2[C@H](NC(=O)COc3ccccc3)C(=O)N2[C@H]1C(=O)O ?
// result 1.03

// query Entry Cc1cccc(N(C)C(=S)Oc2ccc3ccccc3c2)c1 please
// result 0.976

// query Same for OCCN1CCN(CCCN2c3ccccc3Sc3ccc(Cl)cc32)CC1
// result 1.01

// query Now give it for CCCCC(=O)O[C@H]1CCC2C3CCc4cc(O)ccc4C3CC[C@@]21C (stereo partly drawn) too.
// result 1

// query // same read-out, input: O=c1c(-c2ccc3c(c2)OCO3)coc2cc(O)ccc12
// result 0.977

// query Let us now turn to CC(=O)Oc1ccc2c(c1)CCC1C2CC[C@@]2(C)C1CC[C@@H]2OC(C)=O (stereo partly drawn)
// result 0.984

// query Here is the next compound: Cn1nnnc1SCC1=C(C(=O)O)N2C(=O)C(NC(=O)C(OC=O)c3ccccc3)C2SC1 (stereo not drawn)
// result 1.02

// query Again, but for C[C@]12CCC3C(CC[C@H]4CC(=O)CC[C@]34C)C1CCC2=O (stereo partly drawn)
// result 0.866

// query Next: CC(C)CCCC(C)C1CCC2C3CCC4CC(=O)CCC4(C)C3CCC12C (stereo not drawn)
// result 1.05

This collection of values is drawn from PubChem BioAssay AID1159580.
